- system-under-test: Human PPARγ1 (GST-PPARγ) (Homo sapiens, UniProt P37231)
- Sequence (P37231 29-505): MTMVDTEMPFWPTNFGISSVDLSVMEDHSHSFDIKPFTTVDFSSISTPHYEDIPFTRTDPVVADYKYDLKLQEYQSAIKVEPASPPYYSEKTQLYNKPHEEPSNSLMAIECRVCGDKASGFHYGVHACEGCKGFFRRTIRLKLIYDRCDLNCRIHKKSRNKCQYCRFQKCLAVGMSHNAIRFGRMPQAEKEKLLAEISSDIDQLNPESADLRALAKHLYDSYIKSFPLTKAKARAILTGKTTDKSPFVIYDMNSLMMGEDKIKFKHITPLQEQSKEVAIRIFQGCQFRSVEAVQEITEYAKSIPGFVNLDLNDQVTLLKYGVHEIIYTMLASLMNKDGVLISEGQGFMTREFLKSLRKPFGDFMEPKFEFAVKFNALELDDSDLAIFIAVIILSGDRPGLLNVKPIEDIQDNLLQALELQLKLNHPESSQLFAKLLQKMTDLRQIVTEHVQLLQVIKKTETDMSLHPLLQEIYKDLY
- experimental-details: PPARγ competition binding assay ([^3H]Rosiglitazone displacement)
- cond: calculated / estimated
pKi: −log10 of the molar value.

molecule: CCCCC/C=C\C/C=C\CCCCCCCC(=O)O [linoleic acid, reference compound]
pKi: < 6.00
